Target: dipeptidyl peptidase IV from porcine kidney (Sus scrofa, UniProt P22411)
Sequence (P22411 whole entry): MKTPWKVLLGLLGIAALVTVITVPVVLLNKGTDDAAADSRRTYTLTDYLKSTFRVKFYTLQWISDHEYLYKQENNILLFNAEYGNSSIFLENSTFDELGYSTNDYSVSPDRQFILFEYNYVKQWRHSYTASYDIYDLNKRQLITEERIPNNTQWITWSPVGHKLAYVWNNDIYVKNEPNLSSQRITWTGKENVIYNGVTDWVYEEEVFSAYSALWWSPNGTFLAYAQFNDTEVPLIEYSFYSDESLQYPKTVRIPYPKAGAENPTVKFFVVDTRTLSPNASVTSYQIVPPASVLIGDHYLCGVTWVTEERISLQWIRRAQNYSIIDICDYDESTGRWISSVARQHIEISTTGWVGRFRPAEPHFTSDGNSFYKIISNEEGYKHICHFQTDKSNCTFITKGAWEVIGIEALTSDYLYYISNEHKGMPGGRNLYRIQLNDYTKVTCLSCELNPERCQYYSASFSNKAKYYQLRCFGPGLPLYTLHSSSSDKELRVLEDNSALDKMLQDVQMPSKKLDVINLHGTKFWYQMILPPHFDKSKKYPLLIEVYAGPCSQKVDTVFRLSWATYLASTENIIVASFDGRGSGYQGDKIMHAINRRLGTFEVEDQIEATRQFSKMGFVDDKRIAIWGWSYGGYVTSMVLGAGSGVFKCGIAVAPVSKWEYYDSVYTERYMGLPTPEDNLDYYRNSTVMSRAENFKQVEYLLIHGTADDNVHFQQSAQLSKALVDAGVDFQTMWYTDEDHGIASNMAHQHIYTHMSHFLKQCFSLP
Threshold-based label: Ki under 3000 nM gives MET, Ki not under 3000 nM gives NOT MET.

INSERT INTO assay_data (compound, target, category_label) VALUES
  ('CC(=O)C1CCCN1C(=O)C(N)C(C)C (stereo not shown)', 'dipeptidyl peptidase IV from porcine kidney (Sus scrofa, UniProt P22411)', 'MET'),
  ('NC(Cc1c[nH]cn1)C(=O)N1CCCC1 (stereo not shown)', 'dipeptidyl peptidase IV from porcine kidney (Sus scrofa, UniProt P22411)', 'NOT MET'),
  ('N[C@@H](CCC(=O)NCC(=O)NCC(=O)NCC(=O)O)C(=O)N1CCSC1', 'dipeptidyl peptidase IV from porcine kidney (Sus scrofa, UniProt P22411)', 'MET'),
  ('NC(CCC(=O)NO)C(=O)N1CCCC1 (stereo not shown)', 'dipeptidyl peptidase IV from porcine kidney (Sus scrofa, UniProt P22411)', 'MET'),
  ('CCC(C)C(N)C(=O)C1CCCCC1 (stereo not shown)', 'dipeptidyl peptidase IV from porcine kidney (Sus scrofa, UniProt P22411)', 'NOT MET'),
  ('NC(CC(=O)O)C(=O)N1CCCC1 (stereo not shown)', 'dipeptidyl peptidase IV from porcine kidney (Sus scrofa, UniProt P22411)', 'MET'),
  ('N[C@@H](CCC(=O)NCC(=O)NCC(=O)NCC(=O)NCC(=O)NCC(=O)O)C(=O)N1CCSC1', 'dipeptidyl peptidase IV from porcine kidney (Sus scrofa, UniProt P22411)', 'MET'),
  ('CC(C)C(N)C(=O)N1CCSC1 (stereo not shown)', 'dipeptidyl peptidase IV from porcine kidney (Sus scrofa, UniProt P22411)', 'MET'),
  ('CCC(C)C(N)C(=O)N1CC1 (stereo not shown)', 'dipeptidyl peptidase IV from porcine kidney (Sus scrofa, UniProt P22411)', 'NOT MET'),
  ('NC(CC(=O)NO)C(=O)N1CCSC1 (stereo not shown)', 'dipeptidyl peptidase IV from porcine kidney (Sus scrofa, UniProt P22411)', 'NOT MET');
